Source of measurements: patent US20210363269A1

# tested_on: T1, human SIRP-α v2 D1 domain (human)
# T1 construct: also called human v2
# test_name: SPR, Langmuir fit
Listing of recorded koff by entry.
Could you give me the number in s⁻¹? Just the number is fine.

Data point: S25 (scFv, V domains shown, also called clone 25; scFv-Fc form of AB25) VH: DVQLVESGGGVVRPGESLRLSCEASGFTFSSNAMSWVRQAPGKGLEWVAGISSGSDTYYGDSVKGRLTISRDNSKNILYLQMNSLTAEDTAVYYCARETWNHLFDYWGLGTLVTVSS VL: ALTQPASVSANPGETVEITCSGGSYSSYYYAWYQQKSPGSAPVTLIYSDDKRPSNIPSRFSGSASGSTATLTITGVRAEDEAVYFCGGYDQSSYTNPFGAGTTLTVL ; koff = 0.000209

// field: koff; key: S202 (scFv, V domains shown) VH: DVQLVESGGGVVRPGESLRLSCAASGFTFSSYAMSWVRQAPGKGLEWLAGISAGGSDTYYIDSVKGRFTISRDNSKNSLYLQMNSLTAEDTAVYYCARETWNHLFDYWGLGTLVTVSS VL: ALTQPASVSANPGETVKITCSGGGYYSTYYGWYQQRSPGSAPVTVIHSDDKRPSDIPSRFSGSASGSAATLTITGVRVEDEAVYYCAGYDGRTYLNTFGAGTTLTVL ; value = 5.4e-05

Others:
// koff value for S206 (scFv, V domains shown) VH: DVQLVESGGAVVRPGETLRLSCTASGFTFSSYAMSWVRQAPGKGLEWVSGISASGSDTYYADSVKGRSTISRDNSKNTLYLRMSSLTAEDTAVYYCARETWNHLFDYWGLGTLVTLSS VL: ALTQPASVSANPGETVKITCSGGGTSSYYGWYQQKSPGSAPVTLIHSDDKRPSDIPSRFSGSASGSTATLTITGVQAEDEAVYYCGGYDYTTYVNTFGAGTTLTVL : 3.6e-05

Sample S189 (scFv, V domains shown) VH: DVQLVESGGGVVRPGESLRLSCAASGFTFSSSDMNWVRQAPGEGLEWVSLISGSGEITYYADSVKGRFTISRDNSKNTLYLQMNSLRAEDTAIYYCAKENNMYRFFDYWGLGTLVTVSS VL: ETVLTQSPGTLSLSPGERATLSCRASQSVYTYLAWYQQKPGQPPRLLIHAARNRAAGIPDRFSGSGSGTEFTLTISSLQSEDFAVYYCQQYYDRPPLTFGGGTKVEIK ; koff observed: 0.00281

// S66 (scFv, V domains shown, also called clone 66; scFv-Fc form of AB66) VH: DVQLVESGGGVVRPGESLRLSCAASGFTFSSYAMSWVRQAPGKGLEWLAGISAGGSDTYYIDSVKGRFTISRDNPKNSLYLQMSSLTAEDTAVYYCARETWNHLFDYWGLGTLVTVSS VL: ALTQPASVSANPGETVKITCSGGDYYSTYYAWYQQKSPGSAPVTVIHSDDKRPSDIPSRFSGSASGSAATLIITGVRVEDEAVYYCGGYDGRTYINTFGAGTTLTVL : koff value = 0.000206

Query S149 (scFv, V domains shown, scFv-Fc format (VL-linker-VH on human IgG1 Fc)) VH: DVQLVESGGGVVRPGESLRLSCAASGFTFSNFAMNWVRQAPGEGLEWVSLISVTATTYYADSVKGRFTISRDNSKNTLYLQMNSLRAEDTAVYYCAKVTWNNLFDYWGLGTLVTVSS VL: EIVLTQSPGTLSLSPGERATLSCRASQPIDSYLAWYQQKPGQAPRLLIYNTVTRATGIPDRFSGSGSGTDFTLTINRLEPEDFAVYYCQHQYDWPPYIFGGGTKVEIK yields koff of 0.000544

Memo: S21 (scFv, V domains shown, also called clone 21; scFv-Fc form of AB21) VH: DVQLVESGGGVVRPGESLRLSCAASGFTFSSNAMSWVRQAPGKGLEWLAGISAGGSDTYYPASVKGRFTISRDNSKNTLYLQMNTLTAEDTAVYYCARETWNHLFDYWGLGTLVTVSS VL: ALTQPASVSANPGETVKIACSGGDYYSYYYGWYQQKAPGSALVTVIYSDDKRPSDIPSRFSGSASGSTATLTITGVRAEDEAVYYCGGYDYSTYANAFGAGTTLTVL , reported koff: 0.000207

Lookup result for S198 (scFv, V domains shown) VH: DVQLVESGGGVVRPGESLRLSCAASGFSFSSHAMNWVRQAPGEGLEWVSRINSGGGGTDYAESVKGRFTISRDNSENTLYLQMNSLRAEDTAVYYCAKQYDWNGFFDYWGLGALVTVSS VL: ETVLTQSPATLSVSPGERATLSCRASQTVGSKLAWHQQKPGQAPRLLIYDATNRATGIPDRFSGSGSGTDFTLTISSLQTEDSAVYYCQQYYYWPPYRFGGGTKVEIK ; measured koff: 4.95e-05

Form: binder = S214 (scFv, V domains shown) VH: DVQLVESEGGVVRPGESLRLSCEASGFTFRNSYMTWVRQAPGEGLEWVSTISDTGDTAYYADSVKGRFTISRDNSKNSLYLQMNSLRAEDTAIYYCAKSWIWWTFFDYWGLGTLVTVSS VL: ALTQPASVSANLGGTVEITCSGGNSNHYGWYQQKSPGSAPVTLIYADTNRPSNIPSRFSGSTSGSTSTLTITGVQAEDEAVYYCGGSSTGDGIFGAGTTLTVL ; koff = 0.000677

koff reported for this binder S218 (scFv, V domains shown, scFv-Fc format (VL-linker-VH on human IgG1 Fc)) VH: DVQLVESGGGVVRPGESLTLSCTASGFTFTSSTMNWVRQAPGEGLDWVSSISTSGVITYYADSVKGRATISRDNSKNTLYLRLFSLRADDTAIYYCATDTFDHWGPGTLVTVSS VL: ALTQPASVSANPGETVKITCFGSSGNYGWFQQKSPGSAPVTVIHYNNKRPSDIPSRFSGSKSGSTGTLTITGVRAEDEAVYFCGAWETGSATFGAGTTLTVL : 5.47e-05
